- assay-comment: Decomposition of compound in PBS buffer, pH 7.4 determined by HPLC
- Type: physicochemical
- condition-set: 37° C. under argon
- Procedure: The ability of compounds to donate HNO is assessed. N2O results are reported relative to Angeli's salt. All decompositions are carried out at 37° C. under argon.
Decomp. Time (time required for complete decomposition) overview

// worked examples, Decomp. Time (time required for complete decomposition) included
CC(C)(C)OC(=O)N(Cl)OC(=O)c1ccc([N+](=O)[O-])cc1	<3 h
CC(=O)ON(C(C)=O)S(=O)(=O)c1c(Br)cccc1Br	< 2 h
O=C(c1ccccc1)N(Cl)OC(=O)C(F)(F)F	<3 h

What value of measured Decomp. Time (time required for complete decomposition) is listed for CC(=O)ON(C(=O)OCc1ccccc1)S(=O)(=O)c1c(Cl)cccc1Cl ?
<3 h

// query: CCOC(=O)N(OC(C)=O)S(=O)(=O)c1c(Cl)cccc1Cl
<3 h

Same again, this time with CC(=O)ON(C(=O)OC(C)(C)C)S(=O)(=O)c1ccccc1Br
<2 h

Please give the result for CC(=O)ON(C(=O)C(C)(C)C)S(=O)(=O)c1ccccc1[N+](=O)[O-] too.
>20 h

And for O=C(ON(Cl)C(=O)c1ccc(Cl)cc1)c1ccc(Cl)cc1 ?
<3 h

Same question for CC(=O)ON(Cl)C(C)=O [Compound 9, N-chloro-N-acetyloxy-acetamide] please.
<3 h

---

Some compounds, each annotated with its measured Decomp. Time (time required for complete decomposition).
- assay-comment: Decomposition of compound in PBS buffer, pH 7.4 determined by HPLC
- Format: physicochemical
- condition-set: 37° C. under argon
- Description: The ability of compounds to donate HNO is assessed. N2O results are reported relative to Angeli's salt. All decompositions are carried out at 37° C. under argon.

O=C(ON(Cl)C(=O)c1ccccc1)C(Cl)Cl [Compound 7, N-chloro-N-dichloroacetyloxy- benzamide]	<3 h
CC(=O)ON(C(C)=O)S(=O)(=O)c1c(F)cc(F)cc1Br	<3 h
CC(=O)ON(C(C)=O)S(=O)(=O)CCl	<3 h
CC(=O)ON(C(C)=O)S(=O)(=O)c1ccccc1Cl	<3 h
CC(=O)ON(Cl)C(=O)c1ccccc1 [Compound 6, N-chloro-N-acetoxy-benzamide]	<3 h

GET /values?readout=Decomp. Time (time required for complete decomposition)&item= CC(=O)ON(C(=O)C(C)(C)C)S(=O)(=O)c1c(Cl)cccc1Cl
<20 h

Would you mind doing CC(=O)ON(C(C)=O)S(=O)(=O)c1c(F)cccc1F as well?
< 3 h

Next compound: CC(=O)ON(C(=O)OC(C)(C)C)S(=O)(=O)c1c(Br)cccc1Br
<3 h

Try the compound CC(=O)ON(C(C)=O)S(=O)(=O)c1ccc(Cl)cc1
<3 h

---

Documented % N2O esterase across a set of compounds
- System: esterase
- assay-comment: HNO production via N2O quantification in PBS buffer, pH 7.4 with added esterase
- Assay type: in vitro ADME
- condition-set: pH 7.4 with 2-4 mg added esterase, 37° C. under argon, N2O relative to Angeli's salt
The reply should contain only the number, in %.

Here are 4 compounds together with their reported answers.
CC(=O)ON(C(C)=O)S(=O)(=O)c1c(Cl)cccc1Cl	57
CC(=O)ON(C(=O)OC(C)(C)C)S(=O)(=O)c1c(Cl)cccc1Cl	85
CC(=O)ON(C(=O)OC(C)(C)C)S(=O)(=O)c1c(Br)cccc1Br	73
CC(=O)ON(C(=O)OCc1ccccc1)S(=O)(=O)c1c(Cl)cccc1Cl	83

Now look at this entry.
Form field - read-out: % N2O esterase; system: esterase; submitted item: CC(=O)ON(C(=O)OC(C)(C)C)S(=O)(=O)c1ccccc1Br
67

---

- assay-comment: HNO production via N2O quantification (GC headspace analysis)
- Assay type: physicochemical
- condition-set: compound incubated in PBS buffer, pH 7.4; 37° C. under argon; N2O relative to Angeli's salt
measurement-type: % N2O pH 7.4 (%)
Answer in %, number only, no unit symbol.

Below, each entry is followed by its recorded % N2O pH 7.4 result.
CC(C)(C)OC(=O)N(OC(=O)c1ccc([N+](=O)[O-])cc1)S(=O)(=O)c1c(Cl)cccc1Cl [Compound 40]	0
CC(=O)ON(C(C)=O)S(=O)(=O)c1ccccc1[N+](=O)[O-] [Compound 25]	13
CC(=O)ON(Br)C(C)=O [Compound 15, N-bromo-N-acetyloxy-acetamide]	7
O=C(ON(Cl)C(=O)c1ccccc1)c1ccccc1 [Compound 1, N-chloro-N-benzoyloxy-benzamide]	1
CC(=O)ON(C(=O)C(Cl)Cl)S(=O)(=O)c1c(Cl)cccc1Cl [Compound 30]	3
CC(=O)ON(C(=O)C(C)(C)C)S(=O)(=O)c1cc(Cl)ccc1Cl [Compound 31]	5
CC(=O)ON(C(C)=O)S(=O)(=O)c1ccc(Cl)cc1 [Compound 18]	4

Now look at this one.
Given the compound CC(=O)ON(C(C)=O)S(=O)(=O)c1c(Cl)cccc1Cl [Compound 23] , what is its reported % N2O pH 7.4?
56
